Every entry's value here was drawn from PubChem BioAssay AID1159580.

experimentDescription: chemical genetic growth profiling, strain panel (AID 1159580);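 note: tested at 20 µM; growth read once vehicle control cultures reached saturation at 30 °C; 1 = growth at the plate median or of vehicle wells; lower values mean less growth of the strain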
protocolConditions: S. cerevisiae deletion strains, growth OD, locus YIL147C, strain SLN1, active compounds read low
Screen size: about 5,500 compounds; about 2,000 (36%) were called active. Roughly 18% stayed inconclusive and do not appear here. This is one part of the list.
experimentalReadout: normalized growth
Give bare numbers.

Record excerpt, results attached:
                                   molecule  experimentalreadout  testresult
0  O=C(Nc1ccccn1)c1cc(-c2ccccc2)c(C(F)(F)F)s1    normalized growth       0.949
1  N#CC1=C(N)C(C#N)(C#N)C2(CCCCC2)C2CCCC=C12 (centres undefined)    normalized growth       0.985
2  Cc1nc(C(F)(F)F)c(C(=O)O/N=C(/N)c2ccc(Cl)cc2)s1    normalized growth       0.978
3      CN(C)/C=C/C(=O)c1ccc(C#Cc2ccccc2)cc1    normalized growth       0.982
4  CCc1cc2c(cc1-c1csc(C/C(N)=N\O)n1)C(C)(C)CCC2(C)C    normalized growth       0.981

For each listed entry, give its normalized growth.
1. COc1cc(C(=O)Oc2c(Cl)cc(Cl)cc2C=Nc2cccc([N+](=O)[O-])c2)cc(OC)c1OC
2. CCOC(=O)c1c(N=Cc2cc(Br)c(Br)cc2O)sc2c1CCCC2
3. CCCCCCCC1CCC/C1=N/OC(=O)c1cccs1 (centres undefined)

Reply text:
1: 0.973; 2: 0.96; 3: 0.992

---

experimentDescription: chemical genetic growth profiling, strain panel (AID 1159580);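 note: tested at 20 µM; growth read once vehicle control cultures reached saturation at 30 °C; 1 = growth at the plate median or of vehicle wells; lower values mean less growth of the strain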
protocolConditions: S. cerevisiae deletion strains, growth OD, locus YNL322C, strain KRE1, active compounds read low
Out of some 5,500 compounds screened, about 2,000 (36%) were called active. Another 18% or so got no clear call; they are omitted. Some of the results follow.
experimentalReadout: normalized growth
Give bare numbers.

                                   compound  testresult
0  Nc1nc2c(c(=O)[nH]1)N(C=O)C(CNc1ccc(C(=O)N[C@@H](CCC(=O)O)C(=O)O)cc1)CN2 (some centres undefined)       0.995

For each listed entry, give its normalized growth.
1. BrC12CC3CC(CC(C3)C1)C2
2. COC(=O)[C@H]1[C@H]2C[C@@H]3c4[nH]c5cc(OC)ccc5c4CCN3C[C@H]2C[C@@H](OC(=O)c2cc(OC)c(OC)c(OC)c2)[C@@H]1OC
3. CCN(CCCl)Cc1ccccc1Br
4. CCOC(=O)CCc1cc(N=Cc2cc(Cl)cc(Cl)c2O)c(O)c(N=Cc2cc(Cl)cc(Cl)c2O)c1
5. O=C1CNC(=S)N1CCc1ccccn1

Reply text:
1.01
0.995
0.974
0.935
0.983

For each listed entry, give its normalized growth.
1. CCOP(=S)(OCC)SCSCC
2. CC1=C(C(=O)O)N2C(=O)[C@@H](NC(=O)C(N)C3=CCC=CC3)[C@H]2SC1 (some centres undefined)
3. O=C(Nc1cc(C(F)(F)F)cc(C(F)(F)F)c1)C(Sc1ccccn1)c1ccccc1 (centres undefined)

Reply text:
1. 1.01
2. 1.03
3. 0.991

---

experimentDescription: chemical genetic growth profiling, strain panel (AID 1159580);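 note: tested at 20 µM; growth read once vehicle control cultures reached saturation at 30 °C; 1 = growth at the plate median or of vehicle wells; lower values mean less growth of the strain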
protocolConditions: S. cerevisiae deletion strains, growth OD, locus YBR279W, strain paf1, active compounds read low
About 2,000 (36%) of roughly 5,500 compounds were called active. Not shown: some 18% with an inconclusive outcome. The list shows a part of the results.
experimentalReadout: normalized growth
Answers are plain numbers.

Record excerpt, results attached:
compound	normalized growth
c1cc2c(cc1[C@H]1OC[C@H]3[C@@H]1CO[C@H]3c1ccc3c(c1)OCO3)OCO2	0.936
CCOC(=O)C1=C[C@]2(CC)CCCN3CCc4c(n1c1ccccc41)[C@@H]32	1.01
CC(=O)O[C@H]1C[C@@H](OC(C)=O)C(C)(C)C2C[C@@H](OC(C)=O)[C@]3(C)C(CC[C@@]4(C)[C@H](c5ccoc5)C(=O)[C@H]5O[C@]543)[C@]21C (stereo partly specified)	1
CCOC(N)=O	0.991

For each listed entry, give its normalized growth.
1. C#C[C@]1(O)CCC2C3CCc4cc(OC)ccc4C3CC[C@@]21C (stereo partly specified)
2. CC[C@]1(O)CC2CN(CCc3c([nH]c4ccccc34)[C@@](C(=O)OC)(c3cc4c(cc3OC)N(C=O)[C@H]3[C@@](O)(C(=O)OC)[C@H](OC(C)=O)[C@]5(CC)C=CCN6CC[C@]43[C@@H]65)C2)C1 (stereo partly specified)
3. CO[C@@H]1[C@@H](O[C@@H]2O[C@H](C)[C@@H](O[C@H]3C[C@@](C)(O)[C@H](O)[C@H](C)O3)[C@H](N(C)C)[C@H]2O)[C@@H](CC=O)C[C@@H](C)[C@@H](O[C@H]2CC[C@H](N(C)C)[C@@H](C)O2)/C=C/C=C/C[C@H](C)OC(=O)C[C@H]1O
4. CCC(COC(=O)c1cc(OC)c(OC)c(OC)c1)(c1ccccc1)N(C)C (stereo unspecified)
5. Nc1ccc(S(=O)(=O)Nc2nccs2)cc1
6. CCOC(=O)CCCCCCCCCCCCC1C=CCC1 (stereo unspecified)
7. Nc1nc(N)c2nc(CNc3ccc(C(=O)NC(CCC(=O)O)C(=O)O)cc3)cnc2n1 (stereo unspecified)

Reply text:
[0.967, 0.989, 1.03, 0.975, 1.01, 0.981, 1]
